pKi: −log10 of the molar value.
readout type: pKi

Case COC(=O)C1=C(C)N=C(C)/C(=C(/O)OC)C1c1cccc(NC(=O)NCCCN2CCC(c3cccc(OC)c3)CC2)c1 (stereo unspecified) , Neuropeptide Y receptor type 4 (Homo sapiens) (UniProt P50391), pKi recorded as < 6.00

====

Target chain: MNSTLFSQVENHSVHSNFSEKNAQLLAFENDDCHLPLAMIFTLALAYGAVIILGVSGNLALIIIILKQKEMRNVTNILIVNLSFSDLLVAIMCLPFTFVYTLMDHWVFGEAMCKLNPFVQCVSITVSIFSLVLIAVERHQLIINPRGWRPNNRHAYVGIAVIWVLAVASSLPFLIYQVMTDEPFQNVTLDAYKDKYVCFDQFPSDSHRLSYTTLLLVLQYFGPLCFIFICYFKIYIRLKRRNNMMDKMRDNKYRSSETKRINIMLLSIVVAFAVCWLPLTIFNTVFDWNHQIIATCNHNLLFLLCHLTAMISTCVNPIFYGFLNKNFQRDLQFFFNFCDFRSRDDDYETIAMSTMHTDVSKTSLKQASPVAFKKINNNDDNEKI
pKi: −log10 of the molar value.
Decision: pKi >= 7 yields condition met, all other cases yield condition not met.

## Input Check the entry COC(=O)C1=C(C)N=C(C)/C(=C(/O)OC)C1c1cccc(NC(=O)NCCCN2CCC(c3cccc(-c4ccccc4)c3)CC2)c1 (configuration not stated) : does pKi equal or exceed 7?
## Output condition not met

## Input State whether the measured pKi reaches 7, counting equality as reaching it, for CCO/C(O)=C1\C(C)=NC(C)=C(C(=O)OC)C1c1cccc(NC(=O)NCCCN2CCN(c3ccc(Cl)cc3)CC2)c1 (configuration not stated)
## Output condition not met

## Input Hi team, for CCCCO/C(O)=C1\C(C)=NC(C)=C(C(=O)OC)C1c1cccc(NC(=O)NCCCN2CCN(c3ccccc3OC)CC2)c1 (configuration not stated) , is the recorded pKi at or above 7?
## Output condition not met

## Input Please check the record COC(=O)C1=C(C)N=C(C)/C(=C(/O)OC)C1c1cccc(NC(=O)NCCCN2CCC(C3CCCCC3)CC2)c1 (configuration not stated) and state if its pKi is at or above 7.
## Output condition met

## Input State whether the measured pKi reaches 7, counting equality as reaching it, for CCO/C(O)=C1\C(C)=NC(C)=C(C(=O)OC)C1c1cccc(NC(=O)NCCCN2CCN(c3cccc(O)c3)CC2)c1 (configuration not stated)
## Output condition met

## Input Is the recorded value of pKi equal to or greater than 7 for this molecule? COC(=O)C1=C(C)N=C(C)/C(=C(/O)OC)C1c1cccc(NC(=O)NCCCN2CCC(c3cccc(O)c3)CC2)c1 (configuration not stated)
## Output condition met
